# assay_summary: Steady-state pharmacokinetics of momelotinib and metabolite GS-644603 (LC–MS/MS, noncompartmental)
# Type: in vivo, human
# experimental_setup: human, blood, oral, momelotinib analyte; day 15 of cycle 1; momelotinib 100 mg BID + erlotinib; n = 4; median (Q1, Q3)
quantity_kind: half-life (h)
Only the number, expressed in h, is required.

Record N#CCNC(=O)c1ccc(-c2ccnc(Nc3ccc(N4CCOCC4)cc3)n2)cc1 , field half-life: 8.6
